The following molecules are listed with their measured pKd values.
- study target: PPP1R15A-PP1 complex (Homo sapiens, UniProt O75807)
- Construct: cDNAs encoding amino acids 325-636 of PPP1R15A and 340-698 of PPP1R15B were His-tagged and cloned into pMAL-c5x; made in house; host or cells: R15A: E. coli BL21-Gold (pMAL-c5x); PP1γ: Sf9 insect cells (baculovirus, pDW464)
- Sequence (O75807 325-636): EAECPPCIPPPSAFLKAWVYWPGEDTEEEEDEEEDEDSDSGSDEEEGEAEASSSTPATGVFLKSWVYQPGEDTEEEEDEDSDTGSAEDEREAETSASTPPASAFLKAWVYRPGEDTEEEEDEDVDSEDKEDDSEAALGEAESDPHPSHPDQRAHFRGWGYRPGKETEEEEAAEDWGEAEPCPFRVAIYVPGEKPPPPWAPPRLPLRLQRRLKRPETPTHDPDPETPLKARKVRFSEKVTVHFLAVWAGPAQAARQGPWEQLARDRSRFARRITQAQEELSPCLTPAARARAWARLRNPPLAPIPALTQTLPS
- Sequence (P36873 whole entry partner, the tested form may be a part): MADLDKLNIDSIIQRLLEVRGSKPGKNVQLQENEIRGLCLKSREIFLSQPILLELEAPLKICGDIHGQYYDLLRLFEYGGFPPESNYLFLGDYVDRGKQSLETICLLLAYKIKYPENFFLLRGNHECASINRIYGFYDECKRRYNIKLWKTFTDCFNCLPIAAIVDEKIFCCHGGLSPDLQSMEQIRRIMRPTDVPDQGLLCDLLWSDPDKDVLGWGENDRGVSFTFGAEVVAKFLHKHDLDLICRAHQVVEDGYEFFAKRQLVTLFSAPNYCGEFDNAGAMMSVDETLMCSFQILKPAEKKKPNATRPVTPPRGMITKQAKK
- assay overview: SPR steady-state binding to R15A-PP1 holophosphatase
- test conditions: SPR steady-state, MBP-R15A325-636-His captured on bio-PP1c, 10° C.; read-out: R15A (KD)
pKd: −log10 of the molar value.

compound string | pKd
[H]/N=C(\N)NN=Cc1ccc(Cl)c(Cl)c1Cl | 5.27
[H]/N=C(\N)NN=Cc1ccc(Cl)cc1 | 5.08
[H]/N=C(\N)NN=Cc1ccc(Cl)nc1Cl | 5.12
[H]/N=C(\N)NN=Cc1cccc(Cl)c1Br | 4.87
[H]/N=C(\N)NN=Cc1cc(Cl)cc(Cl)c1 | 4.76
[H]/N=C(\N)NN=Cc1cc(Cl)ccc1Cl | 4.64
[H]/N=C(\N)NN=Cc1cc(F)ccc1Cl | 5.25
[H]/N=C(\N)NN=Cc1cc(F)c(F)cc1Cl | 5.32
[H]/N=C(\N)NN=Cc1ccc(F)c(Cl)c1 | 4.95
[H]/N=C(\N)NN=Cc1cc(F)cc(F)c1Cl | 5.10
[H]/N=C(\N)NN=Cc1cccc(F)c1Cl | 5.21
N=C(N)N/N=C/c1cc(Cl)c(Cl)cc1F | 4.99
N=C(N)N/N=C/c1cc(Cl)c(Cl)c(Cl)c1 | 5.35
[H]/N=C(\N)NN=Cc1cccc(Cl)c1Cl | 5.98
[H]/N=C(\N)NN=Cc1ccccc1F | 4.89
[H]/N=C(\N)NN=Cc1ccc(F)c(F)c1Cl | 4.98
[H]/N=C(\N)NN=Cc1cccc(Cl)c1F | 5.29
[H]/N=C(\N)NN=Cc1cccc(F)c1 | 5.85

----------
The following compounds are listed with their measured log10(Kd) values.
- study target: PPP1R15B-PP1 (Homo sapiens)
- Construct: cDNAs encoding amino acids 325-636 of PPP1R15A and 340-698 of PPP1R15B were His-tagged and cloned into pMAL-c5x; made in house; host or cells: R15B: E. coli BL21-Gold (pMAL-c5x); PP1γ: Sf9 insect cells (baculovirus, pDW464)
- Sequence (Q5SWA1 340-698): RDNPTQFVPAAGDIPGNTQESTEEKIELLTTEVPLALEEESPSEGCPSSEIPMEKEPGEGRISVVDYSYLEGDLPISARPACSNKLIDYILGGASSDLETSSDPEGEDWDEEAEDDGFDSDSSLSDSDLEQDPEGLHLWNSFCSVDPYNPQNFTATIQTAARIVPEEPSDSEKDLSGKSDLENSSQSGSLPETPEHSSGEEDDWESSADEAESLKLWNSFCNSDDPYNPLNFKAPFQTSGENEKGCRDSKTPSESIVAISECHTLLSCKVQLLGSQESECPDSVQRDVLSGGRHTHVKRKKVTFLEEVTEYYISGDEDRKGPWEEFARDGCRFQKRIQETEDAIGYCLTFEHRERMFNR
- Sequence (P36873 whole entry partner, the tested form may be a part): as the sequence (P36873 whole entry partner, the tested form may be a part) above
- assay overview: SPR steady-state binding to R15B-PP1 holophosphatase
- test conditions: SPR steady-state, MBP-R15B340-698-His captured on bio-PP1c, 10° C.; read-out: R15B (KD)
outcome measure: log10(Kd) (log10 of the value in µM)

compound string | numeric result
[H]/N=C(\N)NN=Cc1cccc(Cl)c1Br | 1.60
N=C(N)N/N=C/c1cc(Cl)c(Cl)cc1Cl | -1.66
[H]/N=C(\N)NN=Cc1ccc(F)c(Cl)c1 | 0.89
[H]/N=C(\N)NN=Cc1ccc(Cl)c(F)c1 | 1.05
N=C(N)N/N=C/c1cc(Cl)c(Cl)cc1F | 0.69
[H]/N=C(\N)NN=Cc1cnc(Cl)nc1Cl | 0.96
[H]/N=C(\N)NN=Cc1ccc(Cl)nc1Cl | 1.09
[H]/N=C(\N)NN=Cc1cc(F)cc(F)c1Cl | 0.61
[H]/N=C(\N)NN=Cc1ccc(Cl)c(Cl)c1 | 1.13
[H]/N=C(\N)NN=Cc1cc(Cl)cc(Cl)c1Cl | -0.36
[H]/N=C(\N)NN=Cc1cc(Cl)c(F)c(Cl)c1 | 0.43
[H]/N=C(\N)NN=Cc1cc(F)ccc1Cl | 0.71
N=C(N)N/N=C/c1cc(Cl)c(Cl)c(Cl)c1 | -0.83
[H]/N=C(\N)NN=Cc1ccccc1F | 1.26
[H]/N=C(\N)NN=Cc1cc(Cl)cc(Cl)c1 | 1.50
[H]/N=C(\N)NN=Cc1cccc(Cl)c1 | 1.27
[H]/N=C(\N)NN=Cc1ccc(Cl)cc1 | 0.87
[H]/N=C(\N)NN=Cc1ccc(F)c(Cl)c1Cl | 0.73
[H]/N=C(\N)NN=Cc1cc(F)c(Cl)cc1Cl | 0.64
[H]/N=C(\N)NN=Cc1c(Cl)ccc(Cl)c1Cl | 1.16

----------
- study target: PPP1R15A-PP1 complex (Homo sapiens)
- Construct: cDNAs encoding amino acids 325-636 of PPP1R15A and 340-698 of PPP1R15B were His-tagged and cloned into pMAL-c5x; made in house; host or cells: R15A: E. coli BL21-Gold (pMAL-c5x); PP1γ: Sf9 insect cells (baculovirus, pDW464)
- assay overview: SPR steady-state binding to R15A-PP1 holophosphatase
- test conditions: SPR steady-state, MBP-R15A325-636-His captured on bio-PP1c, 10° C.; read-out: R15A (KD)
pKd: −log10 of the molar value.
The following compounds are listed with their measured pKd values.

compound string | pKd
[H]/N=C(\N)NN=Cc1cc(F)c(Cl)cc1Cl | 4.99
[H]/N=C(\N)NN=Cc1cnc(Cl)nc1Cl | 4.33
N=C(N)N/N=C/c1cc(Cl)c(Cl)cc1Cl | 6.34
